SYSTEM NAME: Carbonic anhydrase 2, isoform A (Drosophila melanogaster)
Sequence (Q9VTU8 whole entry, canonical isoform): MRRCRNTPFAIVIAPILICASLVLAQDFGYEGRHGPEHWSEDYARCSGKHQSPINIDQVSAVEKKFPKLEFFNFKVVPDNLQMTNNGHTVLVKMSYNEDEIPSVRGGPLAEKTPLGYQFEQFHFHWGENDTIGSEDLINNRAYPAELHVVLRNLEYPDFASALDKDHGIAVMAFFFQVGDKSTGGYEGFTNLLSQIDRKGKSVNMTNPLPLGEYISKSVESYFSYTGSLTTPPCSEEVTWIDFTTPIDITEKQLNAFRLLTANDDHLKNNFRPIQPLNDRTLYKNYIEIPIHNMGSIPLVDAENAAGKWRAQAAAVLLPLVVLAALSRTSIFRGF
ASSAY PROCEDURE: Inhibition of Drosophila melanogaster recombinant carbonic anhydrase-2 expressed in Escherichia coli BL21 (DE3) preincubated for 15 mins by CO2 hydration stopped-flow assay
pKi: −log10 of the molar value. Where a name gives a salt, the structure may show the parent alone.
The threshold is inclusive: pKi of exactly 8 counts as t; values below receive f.

[[record]]
compound = "CC(C)CN(CC(C)C)C(=S)S [DIISOBUTYLCARBODITHIOIC ACID SODIUM SALT]"
system_name = "Carbonic anhydrase 2, isoform A (Drosophila melanogaster)"
assigned_category = "t"

[[record]]
compound = "S=C(S)N1CCCC1"
system_name = "Carbonic anhydrase 2, isoform A (Drosophila melanogaster)"
assigned_category = "t"

[[record]]
compound = "S=C(S)NN1CCOCC1 [POTASSIUM MORPHOLINOCARBAMODITHIOATE]"
system_name = "Carbonic anhydrase 2, isoform A (Drosophila melanogaster)"
assigned_category = "f"


# ---- query compound ----
Determine whether this compound has pKi no lower than 8: S=C(S)NCCN(CCNC(=S)S)CNC(=S)S t

* * *

ASSAY PROCEDURE: Inhibition of Drosophila melanogaster recombinant beat carbonic anhydrase expressed in Escherichia coli BL21 (DE3) preincubated for 15 mins by CO2 hydration stopped-flow assay
READOUT TYPE: pKi
// returns pKi (minus log10 of molar concentration), number only

Need pKi of CC(=O)Nc1nnc(S(N)(=O)=O)s1 [ACETAZOLAMIDE] , thanks. 7.31

* * *

SYSTEM NAME: Carbonic anhydrase 2, isoform A (Drosophila melanogaster)
ASSAY PROCEDURE: Inhibition of Drosophila melanogaster recombinant carbonic anhydrase-2 expressed in Escherichia coli BL21 (DE3) preincubated for 15 mins by CO2 hydration stopped-flow assay
pKi: −log10 of the molar value. Structures can show the parent of a compound that is named as a salt.
Classification field: Yes = pKi at or over 8; No = pKi under 8.

Consider the following illustrative entries.
[[record]]
compound = "S=C(S)NCc1ccncc1"
assigned_category = "No"

[[record]]
compound = "S=C(S)NCCN1CCCCC1"
assigned_category = "No"

[[record]]
compound = "S=C(S)Nc1cccs1"
assigned_category = "Yes"

[[record]]
compound = "S=C(S)NCc1ccccc1 [SODIUM BENZYLCARBAMODITHIOATE]"
assigned_category = "No"

[[record]]
compound = "NCCCn1ccnc1.S=C(S)NCCCn1ccnc1"
assigned_category = "No"

[[record]]
compound = "OCCN(CCO)C(=S)S"
assigned_category = "No"


Please examine the following record next.
Determine whether this compound has pKi no lower than 8: CCCCN(CC)C(=S)S [ETHYLBUTYLCARBAMODITHIOATE SODIUM SALT] No

* * *

SYSTEM NAME: Carbonic anhydrase 1 (Drosophila melanogaster)
Sequence (Q9V396 whole entry): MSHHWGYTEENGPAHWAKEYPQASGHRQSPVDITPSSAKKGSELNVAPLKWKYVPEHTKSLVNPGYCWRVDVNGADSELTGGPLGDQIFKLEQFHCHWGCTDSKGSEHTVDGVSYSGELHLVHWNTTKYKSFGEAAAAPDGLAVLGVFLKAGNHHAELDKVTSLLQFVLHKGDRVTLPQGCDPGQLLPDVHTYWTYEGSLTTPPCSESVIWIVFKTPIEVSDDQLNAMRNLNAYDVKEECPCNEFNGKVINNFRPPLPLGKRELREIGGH
ASSAY PROCEDURE: Inhibition of Drosophila melanogaster recombinant carbonic anhydrase-1 expressed in Escherichia coli BL21 (DE3) preincubated for 15 mins by CO2 hydration stopped-flow assay
Counter-ions that a name gives are not always drawn.
pKi values by entry
pKi here: minus log base 10 of the concentration, concentration in moles per litre.

Some solved entries appear below for comparison.
[[record]]
molecule = "S=C(S)Nc1cccs1"
readout_type = "pKi"
measurement = 9.30

[[record]]
molecule = "CCCCN(CCCC)C(=S)S [DIBUTYLCARBAMODITHIOATE SODIUM SALT]"
readout_type = "pKi"
measurement = 7.77

[[record]]
molecule = "OCCN(CCO)C(=S)S"
readout_type = "pKi"
measurement = 8.49

[[record]]
molecule = "CN1CCN(NC(=S)S)CC1"
readout_type = "pKi"
measurement = 9.05

[[record]]
molecule = "S=C(S)N1CCOCC1 [MORPHOLINECARBAMODITHIOATE SODIUM SALT]"
readout_type = "pKi"
measurement = 7.86

[[record]]
molecule = "S=C(S)NCCN(CCNC(=S)S)CNC(=S)S"
readout_type = "pKi"
measurement = 6.87


For NCCCn1ccnc1.S=C(S)NCCCn1ccnc1 , what is its reported pKi? 9.05
